measuredOn: human GLP-1 receptor (human, UniProt P43220 24-463)
methodNotes: cell-based or functional assay
Starred links: 1 amine or outer side, 2 acyl side, 3 side chain; linkers in the order of their positions; H or OH if unused. Non-standard residues stand in square brackets, D forms with d. Groups on a side chain read outwards from the residue. No end group written: not given here. *: point of attachment. C20 diacid = O=C(O)CCCCCCCCCCCCCCCCCCC(=O)*; C18 diacid = O=C(O)CCCCCCCCCCCCCCCCC(=O)*; γGlu = O=C(O)[C@H](CCC(=O)[*:2])N[*:1]; εLys = N[C@@H](CCCCN[*:1])C(=O)[*:2]; AEEA = NCCOCCOCC(=O)O; Aib = CC(C)(N)C(=O)O
assayEndpoint: EC50 CreLuc hGLP1R 100% hP (nM)
Numbers only, in nM.

binder | EC50 CreLuc hGLP1R 100% hP, nM
YXEGTFTSDYSIXLEEQAQXAFVEWLIKGGPSSGASLRHYYNWLTRQRY (Aib at 2, 13, 20; K28 side chain: C20DA-gGlu-gGlu-gGlu-gGlu-gGlu-gGlu-eLys; C-terminal NH2) [Compound 116] | 2.48
Y[Aib]EGTFTSDYSI[Aib]LEKQAQ[Aib]AFVQWLIK([AEEA-AEEA-γGlu-γGlu-Glu-γGlu-C20 diacid])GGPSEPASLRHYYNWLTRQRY-NH2 [Compound 165] | 4.81
YXEGTFTSDYSIXLEKQAQXAFVQWLIKGGPEEGASLRHYYNWLTRQRY (Aib at 2, 13, 20; K28 side chain: C18DA-gGlu-gGlu-gGlu-gGlu-gGlu-AHX; C-terminal NH2) [Compound 162] | 8.2
Y[Aib]EGTFTSDYSI[Aib]LEEQAQ[Aib]AFVEWLIK([εLys-AEEA-γGlu-γGlu-γGlu-γGlu-γGlu-C20 diacid])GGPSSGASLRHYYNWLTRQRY-NH2 [Compound 110] | 1.53
Y[Aib]EGTFTSDYSI[Aib]LEKQAQ[Aib]EFVQWLIK([γGlu-γGlu-γGlu-γGlu-γGlu-γGlu-C18 diacid])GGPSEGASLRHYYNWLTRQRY-NH2 [Compound 151] | 4.39

// input: 2 binders below; output: EC50 CreLuc hGLP1R 100% hP for each
1. YXEGTFTSDYSIXLEKQAQXAFVEWLIKGGPSSGASLXHYYNWLTRQRY (Aib at 2, 13, 20, 38; K28 side chain: C20DA-gGlu-gGlu-gGlu-gGlu-gGlu-gGlu-eLys; C-terminal NH2) [Compound 129]
2. Y[Aib]EGTFTSDYSI[Aib]LEKQAQ[Aib]AFVQWLIK([AEEA-AEEA-γGlu-γGlu-γGlu-C18 diacid])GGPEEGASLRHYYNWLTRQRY-NH2 [Compound 144]

[0.85, 5.59]

// input: 3 binders below; output: EC50 CreLuc hGLP1R 100% hP for each
1. YXEGTFTSDYSIXLEKQAQXAFVEWLIKGGPSEPESLRHYYNWLTRQRY (Aib at 2, 13, 20; K28 side chain: C20DA-gGlu-gGlu-gGlu-gGlu-gGlu-gGlu-eLys; C-terminal NH2) [Compound 122]
2. Y[Aib]EGTFTSDYSI[Aib]LEKQAQ[Aib]AFVQWLIKGGPEEGASLRHYYNWLTRQRY-NH2 (not fully specified (residue 28)) [Compound 108]
3. YXEGTFTSDYSIXLEQQAQXAFVEWLIKGGPSSGASLRHYYNWLTRQRY (Aib at 2, 13, 20; K28 side chain: C20DA-gGlu-gGlu-gGlu-gGlu-Glu-gGlu-eLys; C-terminal NH2) [Compound 124]

1. 4.97
2. 6.16
3. 1.95

// input: 2 binders below; output: EC50 CreLuc hGLP1R 100% hP for each
1. YXEGTFTSDYSIXLEKQAQXAFVEWLIKGGPSSGASXRHYYNWLTRQRY (Aib at 2, 13, 20, 37; K28 side chain: C20DA-gGlu-gGlu-gGlu-gGlu-gGlu-gGlu-eLys; C-terminal NH2) [Compound 118]
2. Y[Aib]EGTFTSDYSI[Aib]LEKQAQ[Aib]EFVQWLIK([εLys-γGlu-γGlu-γGlu-γGlu-γGlu-C18 diacid])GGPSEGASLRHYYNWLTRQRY-NH2 [Compound 154]

1. 0.84
2. 6.65
